B1: LINE1-full (parent)
chain: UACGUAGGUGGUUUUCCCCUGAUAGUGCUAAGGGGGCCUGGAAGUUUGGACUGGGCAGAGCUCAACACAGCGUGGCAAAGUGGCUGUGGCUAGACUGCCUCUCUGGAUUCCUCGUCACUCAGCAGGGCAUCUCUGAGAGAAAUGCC

Variants of: B1
assay_procedure: self-cleavage, relative activity (ratio to wild type); higher = more cleavage; in vitro, sequencing; the parent is a self-cleaving ribozyme
Items are presented alongside their recorded self-cleavage.
Output: the number by itself.

>>> result_value("G34C U39C")
1.65
>>> result_value("U112C A138C")
1.98
>>> result_value("A141G C146U")
1.31
>>> result_value("C101A U115A")
1.36
>>> result_value("U12C A117G")
1.84
>>> result_value("U9G A138U")
1.51

INPUT: Need self-cleavage of U109C G127U , thanks.
OUTPUT: 1.25

INPUT: Report self-cleavage for G89A please.
OUTPUT: 0.04

INPUT: Which measured self-cleavage value corresponds to C17U A50G ?
OUTPUT: 0.59

INPUT: GET /values?readout=self-cleavage&item= A78G G127A
OUTPUT: 1.16

These data points were gathered from the RNAGym collection of RNA variant scans (doi:10.7554/elife.90254).
